B1: H2-Kb / Ed8 (parent complex)
chain 1: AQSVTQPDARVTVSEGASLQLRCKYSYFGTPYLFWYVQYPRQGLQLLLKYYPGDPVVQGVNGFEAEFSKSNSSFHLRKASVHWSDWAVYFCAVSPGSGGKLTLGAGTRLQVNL
chain 2: DSGVVQSPRHIIKEKGGRSVLTCIPISGHSNVVWYQQTLGKELKFLIQHYEKVERDKGFLPSRFSVQQFDDYHSEMNMSALELEDSAMYFCASSPRASNYTFGSGTRLLVI
chain 3: not shown
chain 4: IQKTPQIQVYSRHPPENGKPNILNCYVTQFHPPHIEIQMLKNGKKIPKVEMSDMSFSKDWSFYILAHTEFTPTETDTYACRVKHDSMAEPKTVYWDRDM
chain 5: SIINFEKL

# Variants of: B1
# experiment-description: % of reporter cells activated (NFAT-GFP), raw; further: test concentration or dose not given here
Labelling: ratio to parent reported below 1 becomes true; at or above becomes false.

Hi there! Is ratio to parent for chain 5 K7N below 1, do you know?
true

Dear colleague, could you confirm whether ratio to parent of chain 5 E6K falls below 1? Thanks.
false

A record lists chain 5 F5S . Is its ratio to parent below 1?
false

Check if ratio to parent falls below 1 for chain 5 F5P .
false

Consider chain 5 I3S . Does its ratio to parent lie strictly below 1?
false

Please check: ratio to parent for chain 5 L8V , strictly under 1 or not?
true

Given the entry chain 5 I2N , would its reported ratio to parent be below 1?
false

Criterion: ratio to parent strictly below 1. Is it met by chain 5 S1G ?
false

Record chain 5 K7W : is its ratio to parent strictly below 1?
true
